The entries below come with measured inhibition values attached.
Biological target: GABA-A receptor; anion channel (Rattus norvegicus) (UniProt O09028+P15431+P18506+P18508+P19969+P20236+P23574+P23576+P28471+P28473+P30191+P62813+P63079+P63138+Q91ZM7+Q9ES14)
Test: SafetyScreen: GABAA (Non-Selective) Rat Ion Channel [3H] Flunitrazepam Binding Agonist Radioligand LeadHunter Assay, catalogue number: 28
Format: protein-complex assay
Conditions: Test compound concentration 10.0 uM
Just the number in %, nothing appended.

Before answering, review these 6 worked examples.
lineNotation	quantitativeReadout
CC(C)[C@@H](Nc1ncnc2[nH]c(-c3cnn(C)c3C#N)cc12)c1ccc2c(n1)OCCO2	8
CNC(=O)Cn1cc(-c2cc3c(N[C@@H](c4ccc5c(c4)S(=O)(=O)CCC5)C(C)C)ncnc3[nH]2)cn1	35
Cn1ncc(-c2cc3c(N[C@@H](c4ccc5c(n4)OCCO5)C(C)(C)C)ncnc3[nH]2)c1C#N	-5
COc1ccc([C@H](Cc2nnn[nH]2)NC(=O)c2ncnc3[nH]ccc23)cc1	0
C[C@H](C(=O)O)[C@@H](NC(=O)c1ncnc2[nH]ccc12)c1ccc(Br)cc1	-4
CC(C)[C@H](Nc1ncnc2[nH]ccc12)c1ccc2c(c1)S(=O)(=O)CCC2	4

Supply inhibition value. Item: "CC(C)[C@@H](Nc1ncnc2[nH]c(C(=O)N[C@@H]3CCN(C)C3)cc12)c1ccc2c(c1)S(=O)(=O)CCC2"
38

Return inhibition (reported value) for this compound: "Cc1nn(C)cc1-c1cc2c(N[C@H](c3ccc4c(c3)S(=O)(=O)CCC4)C(C)C)ncnc2[nH]1"
29

Read off the recorded inhibition for "CNCc1cc(-c2cc3c(N[C@@H](c4ccc5c(c4)S(=O)(=O)CCC5)C(C)C)ncnc3[nH]2)co1"
28

Supply inhibition value. Item: "CC(C)[C@H](Nc1ncnc2[nH]c(-c3cnn(C)c3C#N)cc12)c1ccc2c(n1)OCCO2"
-2
